# Test system: vasopressor response of angiotensin II
# protocol text: AII Challenge: antagonism of angiotensin II vasopressor response;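 note: post-dose Angiotensin II-evoked rise in systolic blood pressure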
# Type: in vivo
# condition: 3 mg/kg I.V.; AII 0.1 mcg/kg IV; 90 min post dose
measurement label: Response Average Change
For clarity, give the value followed by its unit.

Example cases with answers are listed next.
{"compound": "CCCCc1nc2ccc([C@H]3C[C@]4(C)CCCCN4O3)cc2c(=O)n1Cc1ccc(-c2ccccc2-c2nnn[nH]2)cc1 (relative stereo)", "Response Average Change": "16.5 mmHg"}
{"compound": "CCCCc1nc2ccc([C@@]3(C)C[C@@H]4CCCCN4O3)cc2c(=O)n1Cc1ccc(-c2ccccc2-c2nnn[nH]2)cc1 (relative stereo)", "Response Average Change": "12.5 mmHg"}
{"compound": "CCCCc1nc2ccc([C@]3(C)C[C@@H]4CCCN4O3)cc2c(=O)n1Cc1ccc(-c2ccccc2-c2nnn[nH]2)cc1 (relative stereo)", "Response Average Change": "17.5 mmHg"}
{"compound": "CCCCc1nc2ccc([C@@]3(C)C[C@@H]4CCCN4O3)cc2c(=O)n1Cc1ccc(-c2ccccc2-c2nnn[nH]2)cc1 (relative stereo)", "Response Average Change": "2.5 mmHg"}
{"compound": "CCCCc1nc2ccc([C@@H]3C[C@H]4CCCN4O3)cc2c(=O)n1Cc1ccc(-c2ccccc2-c2nnn[nH]2)cc1 (racemic)", "Response Average Change": "20 mmHg"}

For every record below, what is its Response Average Change?
1. CCCCc1nc2ccc([C@]3(C)C[C@@H]4CCCCN4O3)cc2c(=O)n1Cc1ccc(-c2ccccc2-c2nnn[nH]2)cc1 (relative stereo)
2. CCCCc1nc2ccc(C3(C)CC4c5ccccc5CCN4O3)cc2c(=O)n1Cc1ccc(-c2ccccc2-c2nnn[nH]2)cc1 (centres unmarked)
3. CCCCc1nc2ccc([C@@H]3C[C@H]4CCC(C)(C)N4O3)cc2c(=O)n1Cc1ccc(-c2ccccc2-c2nnn[nH]2)cc1 (relative stereo)
4. CCCCc1nc2ccc([C@@H]3C[C@H]4c5ccccc5CCN4O3)cc2c(=O)n1Cc1ccc(-c2ccccc2-c2nnn[nH]2)cc1 (relative stereo)
5. CCCCc1nc2ccc([C@]3(C)C[C@@H]4CCC(C)(C)N4O3)cc2c(=O)n1Cc1ccc(-c2ccccc2-c2nnn[nH]2)cc1 (relative stereo)
6. CCCCc1nc2ccc(C3ON4CCCC4C3C(=O)OCC)cc2c(=O)n1Cc1ccc(-c2ccccc2-c2nnn[nH]2)cc1 (centres unmarked)

// result
1: 9 mmHg; 2: 7.5 mmHg; 3: 3.5 mmHg; 4: 17.5 mmHg; 5: 25 mmHg; 6: 40 mmHg
